Entry source: patent US20190194329A1

Biological target: T1, His-tagged ECD of human 4-1BB (human, UniProt Q07011 24-184)
T1 construct: also called hu4-1BB; 4-1BB ECD; not shown: His tag
Assay: SPR (Biacore), captured antibody, His-tagged ECD analyte
MEASURE NAME: koff (s⁻¹)
Please respond with the number in s⁻¹ and leave the unit unwritten.

Data request: Complete the entry with koff for hu106-4-hIgG4 (antibody, V domains shown, Human IgG4 constant region with the S228P mutation; also called hu106.1x.3x) VH: EVQLVQSGAEVKKPGSSVKVSCKASGYTFTSYYIYWVRQAPGQGLEWIGNIWPGNGGTFYGEKFMGRATFTADTSTSTAYMELSSLRSEDTAVYYCARRPDYSGDDYFDYWGQGTLVTVSS VL: SVELTQPPSVSVSPGQTARITCKLNSGNIGSYYVHWYQQKPGQAPVTMIYRDDKRPDGIPERFSGSSDSSSNSAFLTISGVQAEDEADYYCHSYDSTITPVFGGGTKLTVL
Data returned: 0.042
